- tested_system: T1, wild-type human PTH/PTHrP receptor (hP1R-WT) (human, UniProt Q03431 27-593)
- T1 sequence (looked up): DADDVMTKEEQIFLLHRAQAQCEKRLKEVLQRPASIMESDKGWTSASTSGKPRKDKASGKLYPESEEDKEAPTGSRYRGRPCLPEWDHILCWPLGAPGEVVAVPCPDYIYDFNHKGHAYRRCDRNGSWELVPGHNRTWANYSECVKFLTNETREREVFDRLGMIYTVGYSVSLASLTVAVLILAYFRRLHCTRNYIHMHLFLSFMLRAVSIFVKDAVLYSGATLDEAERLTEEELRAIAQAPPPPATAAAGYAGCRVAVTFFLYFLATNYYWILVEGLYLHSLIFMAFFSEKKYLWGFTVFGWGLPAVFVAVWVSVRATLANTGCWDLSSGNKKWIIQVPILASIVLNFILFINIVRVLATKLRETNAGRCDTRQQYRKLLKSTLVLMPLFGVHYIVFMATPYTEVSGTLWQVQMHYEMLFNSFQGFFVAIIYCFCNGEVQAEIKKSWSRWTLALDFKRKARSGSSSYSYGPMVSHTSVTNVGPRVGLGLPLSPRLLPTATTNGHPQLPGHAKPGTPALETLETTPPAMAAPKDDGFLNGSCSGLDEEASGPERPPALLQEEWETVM
- method_description: cell-based or functional assay
Square brackets hold non-standard residues; d marks the D form. Ends that are not written are not given here. hArg = N=C(N)NCCCC[C@H](N)C(=O)O; Aib = CC(C)(N)C(=O)O
quantity: cAMP EC50 (nM)
Your answer should be a plain number; it is taken to be in nM.

Request: Given the binder [Aib]V[Aib]EIQLMHQ[hArg]AKW-NH2 (N-terminus assumed; SMILES CC[C@H](C)[C@H](NC(=O)[C@H](CCC(=O)O)NC(=O)C(C)(C)NC(=O)[C@@H](NC(=O)C(C)(C)N)C(C)C)C(=O)N[C@@H](CCC(N)=O)C(=O)N[C@@H](CC(C)C)C(=O)N[C@@H](CCSC)C(=O)N[C@@H](Cc1c[nH]cn1)C(=O)N[C@@H](CCC(N)=O)C(=O)N[C@@H](CCCCNC(=N)N)C(=O)N[C@@H](C)C(=O)N[C@@H](CCCCN)C(=O)N[C@@H](Cc1c[nH]c2ccccc12)C(N)=O, also called 671 [Aib^1,3, M]PTH (1-14); 671 [Aib^1,3M]PTH(1-14)) [[Aib^1,3,M]PTH(1-14)] , what is its reported cAMP EC50?
Result: 1.1
